- assayed-system: VEGFR2 (Homo sapiens (Human))
- assay-comment: VEGFR2 Kinase Assay (enzyme)
- Type: biochemical
- assay-conditions: purified cytoplasmic domain KDR protein, 2.7 μM ATP
Recorded IC50 for the following molecules
reported-property: IC50

[[record]]
molecule = "COc1cc2ncc3c(c2cc1OC)CCN(c1cccc(C(=O)Nc2ccc(C(C)C)cc2)c1)C3 [Example 11]"
assayed_system = "VEGFR2 (Homo sapiens (Human))"
test_value = "9 nM"

[[record]]
molecule = "CCc1cccc(NC(=O)c2cccc(N3CCc4c(cnc5ccccc45)C3)c2)c1 [Example 4]"
assayed_system = "VEGFR2 (Homo sapiens (Human))"
test_value = "6 nM"

[[record]]
molecule = "CC(C)c1cccc(NC(=O)c2cccc(N3CCc4c(cnc5ccccc45)C3)c2)c1 [Example 5]"
assayed_system = "VEGFR2 (Homo sapiens (Human))"
test_value = "7 nM"

[[record]]
molecule = "COc1cc2ncc3c(c2cc1OC)CCN(c1cccc(C(=O)Nc2cccc(C(C)C)c2)c1)C3 [Example 10]"
assayed_system = "VEGFR2 (Homo sapiens (Human))"
test_value = "7 nM"


###

- assayed-system: PDGFRβ (Homo sapiens (Human), UniProt P09619)
- assay-comment: PDGFRβ Kinase Assay (enzyme)
- Format: biochemical
- assay-conditions: purified cytoplasmic domain PDGFR-b protein, 36 μM ATP
- Sequence (P09619 554-1106): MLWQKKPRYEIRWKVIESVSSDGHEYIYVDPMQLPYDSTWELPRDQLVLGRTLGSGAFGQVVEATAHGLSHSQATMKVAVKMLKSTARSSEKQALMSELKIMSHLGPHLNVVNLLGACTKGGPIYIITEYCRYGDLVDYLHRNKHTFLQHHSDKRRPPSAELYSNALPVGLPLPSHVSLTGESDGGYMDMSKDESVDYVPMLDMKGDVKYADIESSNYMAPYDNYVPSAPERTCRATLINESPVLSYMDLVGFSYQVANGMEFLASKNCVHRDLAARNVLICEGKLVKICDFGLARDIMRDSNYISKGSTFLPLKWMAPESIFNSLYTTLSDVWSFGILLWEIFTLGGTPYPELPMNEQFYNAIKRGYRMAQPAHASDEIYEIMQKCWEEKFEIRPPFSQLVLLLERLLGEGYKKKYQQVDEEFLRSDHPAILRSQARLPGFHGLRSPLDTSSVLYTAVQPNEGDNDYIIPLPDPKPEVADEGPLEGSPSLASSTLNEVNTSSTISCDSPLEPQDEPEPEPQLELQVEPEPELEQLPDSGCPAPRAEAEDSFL
reported-property: IC50 (nM)

[[record]]
structure = "CCc1cccc(NC(=O)c2cccc(N3CCc4c(cnc5ccccc45)C3)c2)c1"
test_value = 10

[[record]]
structure = "Cc1cccc(NC(=O)c2cccc(N3CCc4c(cnc5ccccc45)C3)c2)c1"
test_value = 16

[[record]]
structure = "O=C(Nc1cccc(C(F)(F)F)c1)c1cccc(N2CCc3c(cnc4ccccc34)C2)c1"
test_value = 14

[[record]]
structure = "CC(C)c1cccc(NC(=O)c2cccc(N3CCc4c(cnc5ccccc45)C3)c2)c1"
test_value = 15

[[record]]
structure = "CC(C)c1ccc(NC(=O)c2cccc(N3CCc4c(cnc5ccccc45)C3)c2)cc1"
test_value = 16

[[record]]
structure = "COc1cc2ncc3c(c2cc1OC)CCN(c1cccc(C(=O)Nc2cccc(C(C)C)c2)c1)C3"
test_value = 11

[[record]]
structure = "CCc1cccc(NC(=O)c2cccc(N3CCc4c(cnc5ccsc45)C3)c2)c1"
test_value = 7

[[record]]
structure = "COc1cc2ncc3c(c2cc1OC)CCN(c1cccc(C(=O)Nc2ccc(C(C)C)cc2)c1)C3"
test_value = 18


###

- assayed-system: VEGFR2 (Homo sapiens (Human), UniProt P35968)
- Sequence (P35968 786-1356): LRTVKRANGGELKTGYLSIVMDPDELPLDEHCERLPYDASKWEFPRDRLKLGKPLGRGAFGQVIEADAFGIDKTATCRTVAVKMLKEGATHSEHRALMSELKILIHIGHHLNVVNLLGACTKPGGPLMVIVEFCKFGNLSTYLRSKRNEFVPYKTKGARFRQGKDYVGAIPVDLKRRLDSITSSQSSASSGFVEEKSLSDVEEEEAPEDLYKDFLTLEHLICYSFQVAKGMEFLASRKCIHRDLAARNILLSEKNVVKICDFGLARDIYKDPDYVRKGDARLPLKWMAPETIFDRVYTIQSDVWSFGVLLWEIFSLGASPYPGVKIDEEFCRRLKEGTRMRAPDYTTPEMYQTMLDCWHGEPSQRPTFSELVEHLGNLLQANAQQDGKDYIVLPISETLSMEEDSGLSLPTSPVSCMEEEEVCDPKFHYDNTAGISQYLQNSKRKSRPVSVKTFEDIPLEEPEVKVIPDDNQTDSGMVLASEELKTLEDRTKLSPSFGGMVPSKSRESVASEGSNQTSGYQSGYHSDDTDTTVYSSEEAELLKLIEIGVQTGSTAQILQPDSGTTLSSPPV
- assay-comment: VEGFR2 Kinase Assay (enzyme)
- Assay type: biochemical
- assay-conditions: purified cytoplasmic domain KDR protein, 2.7 μM ATP
- Procedure: VEGFR2 Kinase Assay: Biochemical KDR kinase assays were performed in 96 well microtiter plates that were coated overnight with 75 μg/well of poly-Glu-[…]:1) in 10 mM Phosphate Buffered Saline (PBS), pH 7.4. […] The reaction was terminated by the addition of 100 μl of 2.5N H2SO4 to each well and read using a microplate ELISA reader set at 492 nm. […]
reported-property: IC50 (nM)

[[record]]
structure = "O=C(Nc1cccc(C(F)(F)F)c1)c1cccc(N2CCc3c(cnc4ccccc34)C2)c1"
assayed_system = "VEGFR2 (Homo sapiens (Human), UniProt P35968)"
test_value = 10

[[record]]
structure = "CC(C)c1ccc(NC(=O)c2cccc(N3CCc4c(cnc5ccccc45)C3)c2)cc1"
assayed_system = "VEGFR2 (Homo sapiens (Human), UniProt P35968)"
test_value = 8

[[record]]
structure = "CCc1cccc(NC(=O)c2cccc(N3CCc4c(cnc5ccsc45)C3)c2)c1"
assayed_system = "VEGFR2 (Homo sapiens (Human), UniProt P35968)"
test_value = 5

[[record]]
structure = "Cc1cccc(NC(=O)c2cccc(N3CCc4c(cnc5ccccc45)C3)c2)c1"
assayed_system = "VEGFR2 (Homo sapiens (Human), UniProt P35968)"
test_value = 7


###

Recorded IC50 for the following molecules
- assayed-system: PDGFRβ (Homo sapiens (Human))
- assay-comment: PDGFRβ Cellular Assay
- Format: cell-based
- Sequence (P09619 33-1106, species assumed): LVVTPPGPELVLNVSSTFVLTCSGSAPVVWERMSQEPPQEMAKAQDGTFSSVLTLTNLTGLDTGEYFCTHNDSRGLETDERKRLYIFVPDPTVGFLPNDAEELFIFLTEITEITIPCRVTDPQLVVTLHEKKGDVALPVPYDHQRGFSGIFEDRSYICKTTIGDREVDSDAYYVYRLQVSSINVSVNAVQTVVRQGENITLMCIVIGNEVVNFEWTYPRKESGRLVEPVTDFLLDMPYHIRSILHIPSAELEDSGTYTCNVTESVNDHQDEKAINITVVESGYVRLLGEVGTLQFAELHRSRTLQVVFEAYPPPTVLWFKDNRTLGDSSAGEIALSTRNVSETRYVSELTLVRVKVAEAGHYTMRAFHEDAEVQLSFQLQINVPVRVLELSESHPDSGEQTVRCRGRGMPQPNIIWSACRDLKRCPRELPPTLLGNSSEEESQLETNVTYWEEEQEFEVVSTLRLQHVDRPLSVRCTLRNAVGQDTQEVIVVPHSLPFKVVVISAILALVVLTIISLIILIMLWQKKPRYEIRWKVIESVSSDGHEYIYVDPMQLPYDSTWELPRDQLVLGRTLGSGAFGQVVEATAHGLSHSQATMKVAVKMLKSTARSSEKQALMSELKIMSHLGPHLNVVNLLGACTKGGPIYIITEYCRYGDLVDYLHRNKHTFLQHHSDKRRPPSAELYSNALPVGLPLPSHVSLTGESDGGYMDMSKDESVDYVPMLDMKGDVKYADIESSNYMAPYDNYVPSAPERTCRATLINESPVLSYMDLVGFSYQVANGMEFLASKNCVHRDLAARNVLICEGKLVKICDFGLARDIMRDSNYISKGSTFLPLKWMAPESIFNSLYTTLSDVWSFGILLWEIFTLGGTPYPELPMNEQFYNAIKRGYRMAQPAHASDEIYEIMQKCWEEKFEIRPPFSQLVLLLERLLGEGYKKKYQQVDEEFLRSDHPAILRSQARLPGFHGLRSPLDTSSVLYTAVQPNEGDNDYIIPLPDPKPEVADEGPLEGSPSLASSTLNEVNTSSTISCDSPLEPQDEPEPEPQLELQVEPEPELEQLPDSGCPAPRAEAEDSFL
reported-property: IC50 (nM)

[[record]]
structure = "O=C(Nc1cccc(C(F)(F)F)c1)c1cccc(N2CCc3c(cnc4ccccc34)C2)c1"
reported_property = "IC50"
readout_unit = "nM"
test_value = 103

[[record]]
structure = "CC(C)c1cccc(NC(=O)c2cccc(N3CCc4c(cnc5ccccc45)C3)c2)c1"
reported_property = "IC50"
readout_unit = "nM"
test_value = 200

[[record]]
structure = "CCc1cccc(NC(=O)c2cccc(N3CCc4c(cnc5ccccc45)C3)c2)c1"
reported_property = "IC50"
readout_unit = "nM"
test_value = 58

